// molecules with IC50 on 3',5'-cyclic-AMP phosphodiesterase 4B (Homo sapiens, UniProt Q07343), multi-source literature
Sequence (Q07343 whole entry): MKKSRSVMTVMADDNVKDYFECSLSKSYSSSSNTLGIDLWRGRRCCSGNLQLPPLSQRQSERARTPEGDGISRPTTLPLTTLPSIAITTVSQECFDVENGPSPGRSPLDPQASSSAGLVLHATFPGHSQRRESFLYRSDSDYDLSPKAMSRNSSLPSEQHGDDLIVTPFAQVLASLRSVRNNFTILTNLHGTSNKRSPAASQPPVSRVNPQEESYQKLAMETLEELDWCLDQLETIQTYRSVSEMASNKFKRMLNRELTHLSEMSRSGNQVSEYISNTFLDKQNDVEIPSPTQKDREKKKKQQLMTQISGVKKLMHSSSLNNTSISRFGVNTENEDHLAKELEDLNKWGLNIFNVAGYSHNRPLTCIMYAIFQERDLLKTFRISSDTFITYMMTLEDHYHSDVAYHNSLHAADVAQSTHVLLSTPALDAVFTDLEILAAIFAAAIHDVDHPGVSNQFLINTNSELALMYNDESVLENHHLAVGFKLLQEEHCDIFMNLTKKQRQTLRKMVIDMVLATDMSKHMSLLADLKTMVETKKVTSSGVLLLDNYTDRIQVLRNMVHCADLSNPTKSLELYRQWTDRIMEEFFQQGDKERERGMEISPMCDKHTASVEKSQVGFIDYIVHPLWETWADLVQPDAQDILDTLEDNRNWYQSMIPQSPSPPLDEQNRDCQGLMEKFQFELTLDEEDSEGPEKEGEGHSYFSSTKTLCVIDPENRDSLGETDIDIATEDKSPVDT
measuredQuantity: IC50 (nM)

Before answering, review these 7 worked examples.
molecule=CCCCNC(=O)Cc1ccc(Nc2nc(-c3ccccc3)nc3c2S(=O)(=O)CCC3)cc1 targetsystem="3',5'-cyclic-AMP phosphodiesterase 4B (Homo sapiens, UniProt Q07343)" reading=70
molecule=C=CCc1c(C)nc(-c2ccc(OC)s2)nc1Nc1ccc(CC(=O)O)cc1 targetsystem="3',5'-cyclic-AMP phosphodiesterase 4B (Homo sapiens, UniProt Q07343)" reading=190
molecule=C=CCN1C(=O)/C(=C/c2ccc(OC)c(OC3CCCC3)c2)SC1=S targetsystem="3',5'-cyclic-AMP phosphodiesterase 4B (Homo sapiens, UniProt Q07343)" reading=4130
molecule=CCc1cc2c(C(=O)Nc3c(Cl)c[n+]([O-])cc3Cl)ccc(OC)n2n1 targetsystem="3',5'-cyclic-AMP phosphodiesterase 4B (Homo sapiens, UniProt Q07343)" reading=9.4
molecule=CNc1nc2sc3c(NCCN4CCOCC4)ncnc3c2c2c1COC(C)(C)C2 targetsystem="3',5'-cyclic-AMP phosphodiesterase 4B (Homo sapiens, UniProt Q07343)" reading=51
molecule="CC(C)(C)C1CCc2c(sc(NC(=O)c3c(F)cccc3F)c2C(N)=O)C1 (stereo not given)" targetsystem="3',5'-cyclic-AMP phosphodiesterase 4B (Homo sapiens, UniProt Q07343)" reading=79.4
molecule=COc1ccc(-c2nc3c(c(Nc4ccc(CC(=O)O)c(F)c4)n2)S(=O)(=O)CCC3)cc1 targetsystem="3',5'-cyclic-AMP phosphodiesterase 4B (Homo sapiens, UniProt Q07343)" reading=7.5

A: O=C(Nc1nccs1)c1ccc(OC(F)F)c(OCC2CC2)c1
B: COc1ccc(C2=NN(CCCCOc3ccc(C4=NNC(=O)C4(C)C)c(F)c3F)C(=O)C2(C)C)c2sc(C(F)(F)F)nc12
Prompt: Quick check, higher IC50 between A and B ? Indicate your choice by writing its label.
Completion: A

###

// compounds with IC50 on UniProt:Q07343, multi-source literature
measuredQuantity: IC50 (µM)

compound=O=C(c1ccc(-c2ccccc2[N+](=O)[O-])o1)N1CCc2ccccc2C1 targetsystem=UniProt:Q07343 measuredquantity=IC50 measurementunits=µM reading=66.3
compound="NC(=O)c1c(NC(=O)c2ccccc2[N+](=O)[O-])sc2c1CCC(c1ccccc1)C2 (stereo unspecified)" targetsystem=UniProt:Q07343 measuredquantity=IC50 measurementunits=µM reading=0.398
compound=COc1ccc(-c2nc(C(=O)NCc3cccc(Cl)c3)c(CN)o2)c2ccc(C(F)(F)F)nc12 targetsystem=UniProt:Q07343 measuredquantity=IC50 measurementunits=µM reading=0.0015
compound=O=C(c1coc(-c2ccccc2O)n1)n1cccn1 targetsystem=UniProt:Q07343 measuredquantity=IC50 measurementunits=µM reading=85.6

A: COc1ccc(C2=NNC(=O)CC2C)c2nc(C(F)(F)F)nn12 (racemic)
B: Cc1ccc(-c2ccc(C(=O)N3CCc4ccccc4C3)o2)cc1
Prompt: I'm curious, which of these has a smaller IC50 number: A or B ? Indicate your choice by writing its label.
Completion: A

###

// molecules with IC50 on 3',5'-cyclic-AMP phosphodiesterase 4B (Homo sapiens, UniProt Q07343), multi-source literature
measuredQuantity: IC50 (nM)

Before answering, review these 3 worked examples.
molecule=COc1ccc(-c2nc3c(c(Nc4ccc(CC(=O)NCC(C)(C)C)cc4)n2)S(=O)(=O)CCC3)cc1F reading=78
molecule=COc1ccc(CNC(=O)c2ccc(OC(F)F)c(OC3CCCC3)c2)cc1 reading=976
molecule=CCc1c(C)nc(-c2ccc(SC)s2)nc1Nc1ccc(CC(=O)O)cc1 reading=34

1: COc1ccc(C2=NNC(=O)CC2C)n2cc(C(F)(F)F)nc12 (racemic)
2: COc1ccc(-c2nc(C(=O)N3CCCC3)c(CN)o2)c2ccc(C(F)(F)F)nc12
Prompt: Quick check, higher IC50 between 1 and 2 ? Indicate your choice by writing its label.
Completion: 1
(1: 260 nM, 2: 17 nM)

I: Cn1c(=O)c2c(nc(NCc3ccccc3)n2CCCC(=O)N/N=C/c2ccc(O)c(O)c2O)n(C)c1=O
II: O=C(Nc1ccc2nc(S)sc2c1)c1ccc(OC(F)F)c(OCC2CC2)c1
III: COc1ccc(C(=O)Nc2c(Cl)cncc2Cl)c2cc(C=O)nn12
IV: C=CCc1c(C)nc(-c2ccc(C)s2)nc1Nc1ccc(CC(=O)O)cc1
Prompt: Descending sort on IC50 required. List the labels, following the order given in the request.
Completion: I, IV, III, II
(I: 1900 nM, IV: 320 nM, III: 9.8 nM, II: 0.75 nM)
